Biological target: Homeobox protein Hox-A13 (Mus musculus) (UniProt Q62424)
Sequence (Q62424 whole entry, looked up): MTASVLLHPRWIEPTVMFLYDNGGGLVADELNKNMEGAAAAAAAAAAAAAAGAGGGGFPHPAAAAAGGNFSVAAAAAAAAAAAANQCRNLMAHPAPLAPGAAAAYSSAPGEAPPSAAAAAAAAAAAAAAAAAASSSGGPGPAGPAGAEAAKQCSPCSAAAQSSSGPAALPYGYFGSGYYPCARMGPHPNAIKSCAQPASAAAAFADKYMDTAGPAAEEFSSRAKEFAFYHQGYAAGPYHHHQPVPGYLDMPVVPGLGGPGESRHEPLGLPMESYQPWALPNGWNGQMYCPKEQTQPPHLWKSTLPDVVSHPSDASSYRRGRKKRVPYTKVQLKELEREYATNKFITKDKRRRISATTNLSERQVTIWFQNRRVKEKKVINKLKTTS
Assay: inhibitors of HoxA13-DNA binding, primary screen, biochemical, fluorescence polarization, labeled oligonucleotide (AID 1185)
Conditions: 15 min, called active from +8 up or from −8 down
Active and inactive are the calls of the source.
Parameter call: string, one of active, inactive

Take a look at these entries with their results.
COMPOUND	ASSIGNED LABEL
COC(=O)[C@@]1(Cc2ccc(OC)cc2)[C@H]2c3cc(C(=O)N4CCCC4)n(Cc4ccsc4Br)c3C[C@H]2CN1C(=O)c1ccccc1	inactive
CCCCC(=C=CC[C@@H](O)c1ccccc1OCCO)CCO	inactive
COC(=O)[C@@]1(Cc2ccc(F)cc2)[C@H]2c3cc(C(=O)N4CCCC4)n(Cc4ccc(C)o4)c3C[C@H]2CN1C(=O)c1ccccc1	inactive
CN1C(=O)C2C=CC(C(O)c3ccccc3)N(Nc3ccccc3)C2C1=O (stereo not given)	inactive
C#CCNC(=O)[C@H](Cc1ccccc1)NC(=O)CCC(=O)O	inactive

Field: outcome | Entry: COCCOC(=O)N1C(=O)[C@@]2(c3cc(C#CC4=CCCCC4)ccc31)[C@H](c1ccc(O)cc1)N1[C@H](c3ccccc3)[C@H](c3ccccc3)OC(=O)[C@H]1[C@@H]2C(N)=O
inactive

Field: outcome | Entry: CCc1oc(CC[C@@H](CO)NC(=O)NCCn2cc(C3(O)CCCCC3)nn2)c(C(=O)OC)c1C(=O)OC
inactive

Field: outcome | Entry: CC1CC/C=C\[C@H]2OC34C=CCN(Cn5nnc6ccccc65)C(=O)[C@H]3N(C(CO)C(C)C)C(=O)[C@@H]4C2C(=O)O1 (stereo not given in full)
inactive

Field: outcome | Entry: O=C1O[C@@H](c2ccccc2)[C@@H](c2ccccc2)N2[C@@H](c3ccccc3OCCO)[C@]3(C(=O)Nc4ccc(C#CC5=CCCCC5)cc43)[C@@H](C(=O)Nc3nc4ccccc4s3)[C@H]12
active

Field: outcome | Entry: CC(C)(C)OC(=O)CC[C@@]12N=C(c3ccc(OCCCO)cc3)O[C@@H]1c1ccccc1N(CCS(=O)(=O)c1ccccc1)C2=O
inactive
